Parameter: inhibition at 200 µM. Scope: all listed entries.
- experimental.target: CAT1 (cationic amino acid transporter 1, CAT1/SLC7A1) (Homo sapiens, UniProt P30825)
- Construct: full-length human transporter stably transfected in HEK cells (HEK-CAT1); net uptake against HEK-VC vector control cells
- Sequence (P30825 whole entry): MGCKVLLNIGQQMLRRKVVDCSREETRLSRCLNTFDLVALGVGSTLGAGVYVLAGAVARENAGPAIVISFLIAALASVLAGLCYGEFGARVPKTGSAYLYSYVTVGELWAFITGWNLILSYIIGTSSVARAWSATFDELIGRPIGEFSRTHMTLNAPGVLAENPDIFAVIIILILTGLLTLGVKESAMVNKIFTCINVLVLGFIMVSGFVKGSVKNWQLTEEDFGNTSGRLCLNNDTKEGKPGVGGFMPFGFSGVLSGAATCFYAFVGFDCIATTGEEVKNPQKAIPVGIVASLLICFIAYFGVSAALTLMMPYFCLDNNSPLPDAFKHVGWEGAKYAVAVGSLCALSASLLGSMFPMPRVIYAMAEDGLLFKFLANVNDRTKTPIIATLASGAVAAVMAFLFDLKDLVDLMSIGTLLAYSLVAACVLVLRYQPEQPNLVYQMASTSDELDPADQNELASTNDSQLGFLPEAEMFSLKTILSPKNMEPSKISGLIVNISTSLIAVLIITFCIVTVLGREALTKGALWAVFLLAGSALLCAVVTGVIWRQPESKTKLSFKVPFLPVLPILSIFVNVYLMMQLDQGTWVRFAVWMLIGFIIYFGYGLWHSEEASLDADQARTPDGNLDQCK
- test.protocol: cell-based
- Set-up: species or system HEK-CAT1 (HEK293 stably transfected); Inhibition of net CAT1-mediated [3H]-L-arginine (100 uM) uptake, 5 min, scintillation counting, vector control subtracted
- details: HEK293; L-arginine 100 uM as substrate; read-out: % Inhibition of L-arginine uptake at 200 µM
Reply with the number, then its unit.

Example results:
CC(=O)Nc1nnc(S(N)(=O)=O)s1 [Acetazolamide] = 8.9%
N[C@@H](Cc1ccc(O)c(O)c1)C(=O)O = 31.4%
COc1ccc(CCN(C)CCCC(C#N)(c2ccc(OC)c(OC)c2)C(C)C)cc1OC (stereo not drawn) = 27.5%
CCN(CC)CCNC(=O)c1cc(Cl)c(N)cc1OC [Metoclopramide] = 2.5%
C[C@]12CCC(=O)C=C1CC[C@H]1[C@@H]3CC[C@](O)(C(=O)CO)[C@@]3(C)C[C@H](O)[C@@]12F = -24.6%

# input Given CN1CCC(=C2c3ccccc3CC(=O)c3sccc32)CC1 , state its recorded inhibition at 200 µM.
# output 9.9%

# input For the molecule shown here, CCc1nc(N)nc(N)c1-c1ccc(Cl)cc1 , give the reported inhibition at 200 µM.
# output 31.2%

# input So what does the record say about inhibition at 200 µM for CNCCCN1c2ccccc2CCc2ccccc21 ?
# output 8.3%

# input Item under review: Nc1ccn([C@@H]2CS[C@H](CO)O2)c(=O)n1 . Reported inhibition at 200 µM?
# output -3.9%

====

- experimental.target: CAT1 (cationic amino acid transporter 1, CAT1/SLC7A1) (Homo sapiens, UniProt P30825)
- Construct: full-length human transporter stably transfected in HEK cells (HEK-CAT1); net uptake against HEK-VC vector control cells
- test.protocol: cell-based
- Design: species or system HEK-CAT1 (HEK293 stably transfected); Inhibition of net CAT1-mediated [3H]-L-arginine (100 uM) uptake, 5 min, scintillation counting, vector control subtracted
- details: HEK293; L-arginine 100 uM as substrate; read-out: % Inhibition of L-arginine uptake at 20 µM
measured.endpoint: inhibition at 20 µM (%)
Give your result in % as a bare value.

Known results for molecules:
C=C[C@H]1CN2CC[C@H]1C[C@@H]2[C@@H](O)c1ccnc2ccc(OC)cc12 = 29.1
C[C@]12C=CC(=O)C=C1CC[C@@H]1[C@@H]2[C@@H](O)C[C@@]2(C)[C@H]1CC[C@]2(O)C(=O)CO = 12.5
C#C[C@]1(O)CC[C@H]2[C@@H]3CCC4=CC(=O)CC[C@@H]4[C@H]3CC[C@@]21C = 26.9
CO[C@H]1/C=C/O[C@@]2(C)Oc3c(C)c(O)c4c(O)c(c(/C=N/N5CCN(C)CC5)c(O)c4c3C2=O)NC(=O)/C(C)=C\C=C\[C@H](C)[C@H](O)[C@@H](C)[C@@H](O)[C@@H](C)[C@H](OC(C)=O)[C@@H]1C = -8.1
Clc1ccccc1CN1CCc2sccc2C1 = 10.4

# input Look at this molecule and give its reported inhibition at 20 µM. CN(C)CCCN1c2ccccc2CCc2ccc(Cl)cc21
# output -4.1

# input # get_value(readout='inhibition at 20 µM', item= O=C(O[C@H]1C[C@H]2CC[C@@H](C1)[N+]21CCCC1)C(O)(c1ccccc1)c1ccccc1 [Trospium Chloride] )
# output 27.1

# input inhibition at 20 µM lookup needed for C[C@H]1O[C@@H](O[C@H]2[C@@H](O)C[C@H](O[C@H]3[C@@H](O)C[C@H](O[C@H]4CC[C@@]5(C)[C@H](CC[C@@H]6[C@@H]5CC[C@]5(C)[C@@H](C7=CC(=O)OC7)CC[C@]65O)C4)O[C@@H]3C)O[C@@H]2C)C[C@H](O)[C@@H]1O , thanks.
# output -7.2

# input Would you mind telling me what inhibition at 20 µM value was observed for CC[C@H](C)C(=O)O[C@H]1C[C@H](O)C=C2C=C[C@H](C)[C@H](CC[C@@H](O)C[C@@H](O)CC(=O)O)[C@H]21 ?
# output 0.2

# input // query inhibition at 20 µM value for entry COc1ccc(OC)c(C(O)C(C)N)c1 (centres unmarked)
# output 24.5

# input Form field: reported inhibition at 20 µM of COc1cc(Cc2cnc(N)nc2N)cc(OC)c1OC
# output 9.9

# input molecule: NCCCC[C@H](N[C@@H](CCc1ccccc1)C(=O)O)C(=O)N1CCC[C@H]1C(=O)O ; wanted: its inhibition at 20 µM
# output 4.6

# input May I ask what inhibition at 20 µM has been recorded for CCOC(=O)C1=C(COCCN)NC(C)=C(C(=O)OC)C1c1ccccc1Cl (centres unmarked) ?
# output -3.9

# input I have this molecule here, C[C@@H](O)[C@H]1C(=O)N2C(C(=O)O)=C(S[C@@H]3CN[C@H](C(=O)N(C)C)C3)[C@H](C)[C@H]12 , and I need its recorded inhibition at 20 µM.
# output -19.1

# input Quick one: inhibition at 20 µM of CN(C)CCC=C1c2ccccc2CCc2ccccc21 ?
# output 35.9

# input Name the recorded inhibition at 20 µM for CCOC(=O)[C@H](CCc1ccccc1)N[C@@H](C)C(=O)N1[C@H](C(=O)O)C[C@@H]2CCC[C@@H]21 .
# output 0.3

# input What measured inhibition at 20 µM goes with CC(CN(C)C)CN1c2ccccc2CCc2ccccc21 (centres unmarked) ?
# output 1.3

# input Which inhibition at 20 µM reading was recorded for the molecule COc1ccnc(C[S+]([O-])c2nc3cc(OC(F)F)ccc3[nH]2)c1OC (centres unmarked) ?
# output 16.7

# input For c1c[nH]cn1 , what is its reported inhibition at 20 µM?
# output -6.3

# input Would you mind telling me what inhibition at 20 µM value was observed for CN1CCC(=C2c3ccccc3CC(=O)c3sccc32)CC1 ?
# output 23.9

# input Which value of inhibition at 20 µM has been reported for CCCCNc1cc(C(=O)O)cc(S(N)(=O)=O)c1Oc1ccccc1 [Bumetanide] in the records?
# output 9

# input Value lookup for inhibition at 20 µM; key = CC#C[C@]1(O)CC[C@H]2[C@@H]3CCC4=CC(=O)CCC4=C3[C@@H](c3ccc(N(C)C)cc3)C[C@@]21C
# output 24.6

# input Query (molecule): NC12CC3CC(CC(C3)C1)C2 ; field requested: inhibition at 20 µM
# output -14.2

# input Name the reported inhibition at 20 µM value associated with the molecule CO/N=C(\C(=O)N[C@@H]1C(=O)N2C(C(=O)O)=C(COC(N)=O)CS[C@H]12)c1ccco1
# output 17.3

# input Please give the measured inhibition at 20 µM for this molecule: CCOC(=O)C1=C(C)NC(C)=C(C(=O)OC)C1c1cccc([N+](=O)[O-])c1 (centres unmarked)
# output -1.5

# input For the molecule Cc1cc(=O)n(-c2ccccc2)n1C [Antipyrine] , what inhibition at 20 µM is on record?
# output -5.1
